target-or-system: PD-L1-Fc fusion protein (Invitrogen) (human, UniProt Q9NZQ7 19-238)
Sequence (Q9NZQ7 19-238): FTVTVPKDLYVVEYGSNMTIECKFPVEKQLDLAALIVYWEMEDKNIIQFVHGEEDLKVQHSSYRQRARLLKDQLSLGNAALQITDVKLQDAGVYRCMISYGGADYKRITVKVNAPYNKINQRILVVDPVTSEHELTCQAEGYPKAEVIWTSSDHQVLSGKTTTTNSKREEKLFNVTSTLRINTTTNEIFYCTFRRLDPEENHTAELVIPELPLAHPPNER
test-summary: BLI
Kd under 1000 nM gets condition met, anything at or over 1000 nM gets condition not met.

# binder, qualitative-label
rows = [
    ("VHH13 (VHH) VHH: EVQLVESGGGLVQPGGSLRLSCAASGSTFSINAMGWYRQAPGKQRELVAAISSGGSTNYADSVKGRFTISRDNAKNTVYLQMNSLKPEDTAVYYCNTINIGTFISLGGSPLGSWGQGTQVTVSS", "condition not met"),
    ("VHH19 (VHH) VHH: EVQLVESGGGSVQAGASLRLSCAASGFPFSHYAIGWFRQAPGKEREFVTSIDRSGINTYYADSVKGRFTISRDNAKNAVSLQMNSLKPDDTAVYYCAAGPRLVTSPELYPYWGQGTQVTVSS", "condition not met"),
    ("VHH20 (VHH) VHH: EVQLVESGGGSVQAGGSLRLSCVASGIAFSESPMAWYRQAPGRQREFVADVSADNKPYYRDTLKGRFTISRDNDKNSVYLQMNFLQPEDTAVYYCNALLLEAGTIKNYWGQGTQVTVSS", "condition met"),
    ("VHH21 (VHH) VHH: EVQLVESGGGLVQTGGSLRLSCAASGRTFDSYFMGWFRQAPGKEREFVAAISGSGSLTSYEDGVKGRFTISRDNAKNTVSLQMTNLKPEDTAVYYCASCLSCAFINGRQVDSRYYNYWGQGTQVTVSS", "condition not met"),
    ("VHH18 (VHH) VHH: EVQLVESGGGWVQTGGSLRLSCAASGSTFDIKRMAWYRQAPGKEREFVADIWSEGSTHYADSVKGRFTISRDSAKNTMYLYMNSLKPEDTAVYYCNVEYVLRTYWGQGTQVTVSS", "condition met"),
]

**Q:** Is 1000 nM strictly greater than the binder's reported Kd? binder: VHH10 (VHH) VHH: EVQLVESGGGLVQAGDSLRLSCAASGRAFSGYAMAWFRQAPEKEREFVAAITWRGGTPYYAVRAKGRFTISRDSAKNTAYLEVNSLKPEDTATYYCAAPSLQVATMDVKDYAYWGQGTLVTVSS
**A:** condition met

**Q:** Is 1000 nM strictly greater than the binder's reported Kd? binder: VHH22 (VHH) VHH: EVQLVESGGGLVQAGGSLKLSCAASGRTFSGNTMGWFRQAPGKERELVTVVSSGGSTYYSDSVKGRFTISRDNALNTVYLQMNSLKPEDTAVYYCAAASLISGLTTTRRLFDYWGQGTQVTVSS
**A:** condition not met

**Q:** Is 1000 nM strictly greater than the binder's reported Kd? binder: VHH16 (VHH) VHH: QVQLVESGGGWVQTGGSLRLSCAASGSTFDIKRMAWYRQAPGKEREFVADIWSEGSTHYADSVKGRFTISRDSAKNTMYLQMNSLKPEDTAAYYCNVGNTWGQGTQVTVSS
**A:** condition met

**Q:** Is 1000 nM strictly greater than the binder's reported Kd? binder: VHH14 (VHH) VHH: EVQLVESGGGLVQAGDSLRLSCTASARTFIKYAMGWFRQAPGKEREFVAAISWSGSRTTYADSVKGRFTISRDNDKNTVYLQMNTLEPEDTAIYYCAKAKGGYHSSQYDYDYWGQGTQVTVSS
**A:** condition met
